Values compiled from the array DNA melting data of Ke et al. (doi:10.1101/2024.01.08.574731).

- METHOD SUMMARY: melting temperature; fluorescence melt of hairpins on a sequencing array, two-state fit, raised by 9.35 °C to match UV melts
- SETUP CONDITIONS: sodium 0.088 M
ENDPOINT: Tm (°C)
Please respond with the number in °C and leave the unit unwritten.

# sequence GGAAAGCGAAAGCTGTCC (((.(((....))).))) ; its Tm = 53.9

# sequence GCTTGGCGAAAGCCCGGC ((..(((....)))..)) ; its Tm = 45.4

# sequence GGGAAAACGAAAGTTCCC (((..(((....)))))) ; its Tm = 43.5

# sequence GATCCCCACAGGGATC ((((((....)))))) ; its Tm = 66.4

# sequence GCTTCCGAAAGGAATAGC ((((((....)))..))) ; its Tm = 44

# sequence GCGAGTCCTCGC ((((....)))) ; its Tm = 56.2

# sequence GATCTAATTGTAGATC ((((((....)))))) ; its Tm = 38.8

# sequence GACTACGGAAACGTAGTC (((((((....))))))) ; its Tm = 61.4

# sequence GGTTCCGGAAACAGAACC (((((.(....).))))) ; its Tm = 41.1

# sequence GACGGCGAAAGCCTCGTC ((((((....)))..))) ; its Tm = 56.4

# sequence GCGTGGCACGC ((((...)))) ; its Tm = 56.8

# sequence GTAGCCCGAAAGGGTAC (((.(((....)))))) ; its Tm = 48.6

# sequence GTTTTAGGAAACTAAGAC ((.((((....)))).)) ; its Tm = 29

# sequence GATCGGGGTGCCGATC ((((((....)))))) ; its Tm = 59.3

# sequence GTCATCGAAAGATGCGAC ((((((....)))..))) ; its Tm = 46.1

# sequence GGAACGGGAAACCGTTTC (.(((((....))))).) ; its Tm = 49.7

# sequence GCTACGCGAAAGCTTGGC ((.(.((....)).).)) ; its Tm = 41.1

# sequence GTGTTCTCGAAAGAGCAC (((..(((....)))))) ; its Tm = 41.8

# sequence GGCCAAGCGAAAGCTGCC (((..(((....)))))) ; its Tm = 54.3

# sequence GGGCGTTCGAAAGAACCC (((..(((....)))))) ; its Tm = 50.3

# sequence GCCCCCGAAAGGGCGGC ((((((....))).))) ; its Tm = 68.5

# sequence GTGTAGCGAAAGCTTCAC (((.(((....))).))) ; its Tm = 51.8

# sequence GGACGTGGAAACACATCC (((.(((....))).))) ; its Tm = 41.1

# sequence GCTTTCGAAAGAATAAGC ((((((....)))..))) ; its Tm = 33.4

# sequence GCTGCTCGAAAGAGAAGC (((.(((....))).))) ; its Tm = 55.5

# sequence GTAGCTGGAAACAGCTGC (.(((((....))))).) ; its Tm = 55.2

# sequence CGCACGGAAACGTAGCG ((((((....))).))) ; its Tm = 53.8

# sequence GCTCAGCGAAAGCACAGC (((..((....))..))) ; its Tm = 39.7

# sequence GTGCCAGGAAACTGGCGC (.(((((....))))).) ; its Tm = 62

# sequence GCTTCGCGAAAGCTTAGC (((..((....))..))) ; its Tm = 50.2

# sequence GATCGTGCGTACGATC ((((((....)))))) ; its Tm = 55

# sequence GTGTGCGAAAGCATTCAC ((((((....)))..))) ; its Tm = 38.3

----------
- METHOD SUMMARY: melting temperature; fluorescence melt of hairpins on a sequencing array, two-state fit, raised by 9.35 °C to match UV melts
- SETUP CONDITIONS: sodium 0.088 M
Label not fulfilled if Tm falls below 40 °C; label fulfilled in every other case.

Req: Say whether GATCGGCGTCCGATC ((((((...)))))) shows Tm of 40 °C or more.
Resp: fulfilled

Req: Say whether CGGGTCCGGAAACGGCCG (((..(((....)))))) shows Tm of 40 °C or more.
Resp: fulfilled

Req: Say whether GTCTGATCGAAAGATGAC (((..(((....)))))) shows Tm of 40 °C or more.
Resp: not fulfilled

Req: Say whether GCTAACGGAAACGCTAGC ((((.((....)).)))) shows Tm of 40 °C or more.
Resp: fulfilled

Req: Say whether GGTGGCGAAAGCCGTACC ((((((....)))..))) shows Tm of 40 °C or more.
Resp: fulfilled

Req: Say whether GTTCCTCGAAAGAGAAC (((.(((....)))))) shows Tm of 40 °C or more.
Resp: not fulfilled

Req: Say whether GCATACGAAAGTAGTGC ((((((....))).))) shows Tm of 40 °C or more.
Resp: fulfilled

Req: Say whether GAACTTGGAAACAAGCTC ((.((((....)))).)) shows Tm of 40 °C or more.
Resp: not fulfilled

Req: Say whether GTAAACGAAAGTTTTAC ((((((....))).))) shows Tm of 40 °C or more.
Resp: not fulfilled

Req: Say whether GCAAGTCGAAAGACCTGC (((.(((....))).))) shows Tm of 40 °C or more.
Resp: fulfilled

Req: Say whether GATCAACTACTTGATC ((((((....)))))) shows Tm of 40 °C or more.
Resp: fulfilled

Req: Say whether GGGTACCGAAAGGTGCCC (((.(((....))).))) shows Tm of 40 °C or more.
Resp: fulfilled

Req: Say whether GATCTCCCCCGAGATC ((((((....)))))) shows Tm of 40 °C or more.
Resp: fulfilled

Req: Say whether GTGTGAGGAAACTTGCAC (((..((....))..))) shows Tm of 40 °C or more.
Resp: not fulfilled

Req: Say whether GCATAGCGAAAGCCATGC ((((.((....)).)))) shows Tm of 40 °C or more.
Resp: fulfilled

Req: Say whether GATCACCTCGGTGATC ((((((....)))))) shows Tm of 40 °C or more.
Resp: fulfilled

Req: Say whether GGGACTCGAAAGAGACCC (((.(((....))).))) shows Tm of 40 °C or more.
Resp: fulfilled

Req: Say whether GCCCACCGAAAGGTGGC (((.(((....)))))) shows Tm of 40 °C or more.
Resp: fulfilled

Req: Say whether GACGATACGAAAGTAGTC (((..(((....)))))) shows Tm of 40 °C or more.
Resp: not fulfilled

Req: Say whether GAATATCCGAAAGGATTC (((..(((....)))))) shows Tm of 40 °C or more.
Resp: not fulfilled

Req: Say whether GGTTCCGCGAAAGCGACC (((..(((....)))))) shows Tm of 40 °C or more.
Resp: not fulfilled

Req: Say whether CGTGAACGGAAACGTACG (((..(((....)))))) shows Tm of 40 °C or more.
Resp: not fulfilled

Req: Say whether GTATTTGGAAACAAATAC (((((((....))))))) shows Tm of 40 °C or more.
Resp: fulfilled

Req: Say whether GTCAACGAAAGTTTTGAC ((((((....)))..))) shows Tm of 40 °C or more.
Resp: not fulfilled

Req: Say whether GCGGACTACCGC ((((....)))) shows Tm of 40 °C or more.
Resp: fulfilled

Req: Say whether GTCTACGAAAGTAGGGAC ((((((....)))..))) shows Tm of 40 °C or more.
Resp: not fulfilled

Req: Say whether GTCCACGAAAGTGACGAC ((((((....)))..))) shows Tm of 40 °C or more.
Resp: fulfilled

Req: Say whether GATTAAGAAATTAATC ((((((....)))))) shows Tm of 40 °C or more.
Resp: not fulfilled

Req: Say whether GATACGACGAAAGTCATC (((..(((....)))))) shows Tm of 40 °C or more.
Resp: not fulfilled

Req: Say whether GTGTGCGGAAACGCGCAC (((.(((....))).))) shows Tm of 40 °C or more.
Resp: fulfilled

Req: Say whether GCGAGAGCGAAAGCTCGC (((..(((....)))))) shows Tm of 40 °C or more.
Resp: fulfilled

Req: Say whether GCGATGCGAAAGCGTTGC ((.(.((....)).).)) shows Tm of 40 °C or more.
Resp: fulfilled

Req: Say whether GCCAAACGAAAGTTCGGC (((.(((....))).))) shows Tm of 40 °C or more.
Resp: fulfilled
